Provenance of the data: patent US6914045B2

system: Staphylococcus sp.; test: in vitro antibacterial evaluation, MIC by broth dilution; type: cell-based; conditions: broth dilution, 18 hours at 35° C.; strain SMITH GC 4543
endpoint.label: MIC Staphylococcus aureus-SMITH (GC 4543)

compound="CC(c1ccccc1)C1NC(=O)CNC(=O)C(CO)NC(=O)C(C(O)C2CNC(=N)N2C2OC(CO)C(O)C(O)C2O)NC(=O)C(C(O)C2CNC(=N)N2)NC(=O)C(Cc2ccc(OC3OC(CO)C(OC4OC5COC(Cc6ccccc6)OC5C(O)C4O)C(O)C3O)cc2)NC1=O (stereo not drawn)" observed_value="0.5 to 1 µg/mL"
compound="CC(c1ccccc1)C1NC(=O)CNC(=O)C(CO)NC(=O)C(C(O)C2CNC(=N)N2C2OC(CO)C(O)C(O)C2O)NC(=O)C(C(O)C2CNC(=N)N2)NC(=O)C(Cc2ccc(OC3OC(CO)C(OC4OC5COC(C6CCCCC6)OC5C(O)C4O)C(O)C3O)cc2)NC1=O (stereo not drawn)" observed_value="0.5 to 1 µg/mL"

Requested read-out: MIC Staphylococcus aureus-SMITH (GC 4543). Entry: CC(c1ccccc1)C1NC(=O)CNC(=O)C(CO)NC(=O)C(C(O)C2CNC(=N)N2C2OC(CO)C(O)C(O)C2O)NC(=O)C(C(O)C2CNC(=N)N2)NC(=O)C(Cc2ccc(OC3OC(CO)C(OC4OC5COC(Cc6ccc(Br)cc6)OC5C(O)C4O)C(O)C3O)cc2)NC1=O (stereo not drawn)
<0.5 to 1 µg/mL

* * *

tested on: Streptococcus sp.; experiment: in vitro antibacterial evaluation, MIC by broth dilution; format: cell-based; conditions: broth dilution, 18 hours at 35° C.; strain GC 4565
Numbered stars: 1 amine (or outer) side, 2 acyl side, 3 side chain; on linkers, the order of the positions; unused ones are H or OH. Square brackets hold non-standard residues; d marks the D form. Peptide text beside a SMILES is read from it. ξ: configuration not given here. X1 = N=C1NCC(C(O)C(N[*:1])C(=O)[*:2])N1C1OC(CO)C(O)C(O)C1O; ξEnduracididine(βξ-OH,4'ξ) = N=C1NCC(C(O)C(N)C(=O)O)N1
MIC Streptococcus pneumoniae (GC 4565) overview

Example cases with answers are listed next.
molecule="CC(c1ccccc1)C1NC(=O)CNC(=O)C(CO)NC(=O)C(C(O)C2CN(Cc3ccc(-c4ccccc4)cc3)C(=N)N2C2OC(CO)C(O)C(O)C2O)NC(=O)C(C(O)C2CNC(=N)N2)NC(=O)C(Cc2ccc(OC3OC(CO)C(OC4OC(CO)C(O)C(O)C4O)C(O)C3O)cc2)NC1=O (stereo not drawn) [Example 66a]" observed_value=">128 µg/mL"
molecule="N=C1NCC(C(O)C2NC(=O)C(Cc3ccc(OC4OC(CO)C(OC5OC6COC7(OC6C(O)C5O)C5CC6CC(C5)CC7C6)C(O)C4O)cc3)NC(=O)C(CC3CCCCC3)NC(=O)CNC(=O)C(CO)NC(=O)C(C(O)C3CNC(=N)N3C3OC(CO)C(O)C(O)C3O)NC2=O)N1 (stereo not drawn)" observed_value="<0.03 µg/mL"

# context switch: different molecule, same MIC Streptococcus pneumoniae (GC 4565)
Give recorded MIC Streptococcus pneumoniae (GC 4565) with Streptococcus sp. for the following molecule: N=C1NCC(C(O)C2NC(=O)C(Cc3ccc(O)cc3)NC(=O)C(Cc3ccccc3)NC(=O)CNC(=O)C(CO)NC(=O)C(C(O)C3CNC(=N)N3C3OC(CO)C(O)C(O)C3O)NC2=O)N1 (stereo not drawn) [Example 279a] (cyclo(GFY[ξEnduracididine(βξ-OH,4'ξ)][X1]S); configuration not given here)
>64 µg/mL
